Ref: the supplement of paper PMC12042874

Assay: amyloid nucleation score (Sup35N fusion, yeast selection) (log enrichment); library NNK1; higher = more nucleation; inactive = no reads after selection;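 further: zero at mode of non-aggregating sequences after 7 days selection at 30°C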
Just so you know, the groups by amyloid nucleation score go like this: Low (below -0.1), Medium (-0.1 to below 0.5), High (0.5 or more)

TSGWCSRLQIIGLYLNVLVC ... High

Into which category would you place EGSPKICPRYST ?
Medium

Where would LISCIRFYCSVLGVDCTDSV land among the classes by reported amyloid nucleation score?
Medium

Class label required: LLLRSRSTRF
Low

The entry to classify is LSEIFSCENGVVGSNSETLT ; which class holds it?
Low

Class (by measured amyloid nucleation score) for KSAASILCTMNVSYRSNFLE
High

Band assignment needed for RFEWLCGVFSGALPKGAWLK please.
Low

Consider YLYIRLPVITVRLDWLFGAK . To which amyloid nucleation score class does it belong?
Medium

Assign a category based on measured amyloid nucleation score for VKVIVIHAAC and give only the class name.
Low

###

Assay: amyloid nucleation score (Sup35N fusion, yeast selection) (log enrichment); library NNK1; higher = more nucleation; inactive = no reads after selection
Below, each entry is listed alongside its reported amyloid nucleation score.
Reply with just the number.

HHFAYWCIVWPE ... 0.728

Entry MLIRVISDVLPG : reported amyloid nucleation score = ?
0.224

Requested field: amyloid nucleation score. Item: ESSAIRNGEC
0.252

Could you tell me which amyloid nucleation score is on file for NCGVYIVYQKRLQAVGYCAN ?
-0.312

Dear colleague, I am looking for the recorded amyloid nucleation score of the following substance: SIYRYLCGRFDCLWILPCEH
1.29

// returns reported amyloid nucleation score for input LTDPLCQTPFFYLFCRDAQE
-0.142

###

Experiment: amyloid nucleation score (Sup35N fusion, yeast selection) (log enrichment); library NNK2; higher = more nucleation; inactive = no reads after selection
// reported amyloid nucleation score for each item listed
Give a plain numeric answer without units written out.

Entry under review: NWWESRAFGWYDSLSIFSYT . Reported amyloid nucleation score?
-0.469

What measured amyloid nucleation score goes with QLVYCVNFVFFARVTNRSAR ?
3.95

Given the entry TISLDM , report its measured amyloid nucleation score.
-0.033

Any idea what its amyloid nucleation score is? The substance is SDLAWGERHLLEGLLVRPTT
0.508

Find the recorded amyloid nucleation score belonging to NTSMNCRKVMYDMNIYNLSK and report it.
3.49

###

Test: amyloid nucleation score (Sup35N fusion, yeast selection) (log enrichment); library NNK3; higher = more nucleation; inactive = no reads after selection
parameter measured: amyloid nucleation score

Examples with answers:
TSGQSVVSSRTHCVIRCRRR ... inactive
TIFFMYWLSPGFSPPI ... 0.148
YMRDCYSNSGWNIYRSKRLS ... inactive
MFLFKVTDTE ... 1.88

Suppose we examine the substance RVCDMVNTASWAIICSCLHL ; what amyloid nucleation score value has been reported?
2.05

// lookup amyloid nucleation score for CRVRGAVRSLLHTVFKVDWV
inactive

Look at this substance and give its reported amyloid nucleation score. FVYTHIWGVGLGKML
0.632

Tell me the measured amyloid nucleation score of IMANFVRMYLEYMMRAAVSL , please.
inactive

Param item = HPRTLSRLNINFRANRYGWS ; retrieve measured amyloid nucleation score.
-0.859

Name the recorded amyloid nucleation score for KVGAGIDIISFIRNLILALP .
inactive

Entry FSPYYLPLYVLVVRIKIQLG : reported amyloid nucleation score = ?
inactive

Fill in the blank: the reported amyloid nucleation score of WEFAGVVYEWGVWKSVSGYG is ____.
0.336

What does the data say about its amyloid nucleation score? Entry: TGFLGWDACGALRIFLTVRW
inactive

Quick one: amyloid nucleation score of QSFQRSVYFSSKGNTEGLFS ?
inactive

Entry LRPCRDRRFLVPDDYSSVFF : reported amyloid nucleation score = ?
inactive

For the substance LWKFSILAYRRFILFKLQMN , what amyloid nucleation score is on record?
inactive

So what does the record say about amyloid nucleation score for LSRGFYAS ?
inactive

Entry LSGRIAKTKRLIVHRLCEEG : reported amyloid nucleation score = ?
inactive

Query: amyloid nucleation score; subject: KYYINVVNRRYLNYFGTWLF
0.617

I am curious: what amyloid nucleation score value has been reported for WLRLSL ?
inactive

Entry under review: APPGFFIIVMSCWCYITRAL . Reported amyloid nucleation score?
inactive

I am curious: what amyloid nucleation score value has been reported for ICLILARINPSIRDLLG ?
0.298

Bench note: what amyloid nucleation score did ILTGNGYDSTRKAYCQFWCF show?
inactive

# amyloid nucleation score lookup, item LHVYTSILWWTYKVDVWLLS
inactive

###

Assay: amyloid nucleation score (Sup35N fusion, yeast selection) (log enrichment); library NNK1; higher = more nucleation; inactive = no reads after selection
parameter measured: amyloid nucleation score
Could you respond with only the numeric value?

Some entries whose results are on file:
LNRFLYDSCLFSCYFGYMVA ... -0.017
SWRVCVMFDTL ... -0.987
FHMAKRLYC ... 0.276
LSGVCRIFH ... 0.584
LLVLYCALLMRLSGLGHAWG ... -0.269

Can you share its amyloid nucleation score? I mean this substance: CCSPAPLSLVIIVATVGVAS
2.04

###

Consider the following sequences and their measured amyloid nucleation score readings.
Experiment: amyloid nucleation score (Sup35N fusion, yeast selection) (log enrichment); library NNK2; higher = more nucleation; inactive = no reads after selection
Lab note: jot down the number only; don't add units.

In the examples that follow, each entry is paired with its recorded amyloid nucleation score.
EVVAISNTASICLYSNYKH ... 5.04
FYSGKRARMGGEGGEKTPRS ... -1.2
LRVMYHFNQCQFSYLRDFGR ... 8.38

Given GGLMRTSPNS , state its recorded amyloid nucleation score.
-0.108

Which amyloid nucleation score value is on record for NIRVNDCVRHPSGDVQARVS ?
-0.014

// lookup amyloid nucleation score for ECHANASFFLCRGAERSACG
0.783

Which amyloid nucleation score reading was recorded for the sequence VNSEPDTLEGNENWYMGTRC ?
-0.125

Recorded amyloid nucleation score for PACTLESYRSNNFDGLFMTT , please?
-0.609

###

Assay: amyloid nucleation score (Sup35N fusion, yeast selection) (log enrichment); library NNK3; higher = more nucleation; inactive = no reads after selection
parameter measured: amyloid nucleation score

Some entries whose results are on file:
MSMLKFIYFDYSMDSLHIIW ... inactive
FRHCGCHTFLCIIVTDRHHY ... 1.85
PGREIVVPHFR ... inactive
RSVVMYALSIFYVRFTANQN ... 0.755

I would be grateful if you could share the reported amyloid nucleation score for TCSSACFVENRDTNHNGHGG .
inactive

Returns the measured amyloid nucleation score for the input substance. Input: TQNGGVNVIRFYLCDFLSGL
2.87

So what does the record say about amyloid nucleation score for PKMSPSAMRSCDDLASPFIS ?
inactive

For the substance KFCLWYSGTNELDLCEPSMT , what amyloid nucleation score is on record?
inactive

Need amyloid nucleation score, item ERSHVCCGNDRYTLLWRVYS
inactive

Please give the measured amyloid nucleation score for this substance: HSVLGMCFSPKGVDVTTLVN
inactive

Using the record for LRAICKSCGVASGYVAAPRA , report its amyloid nucleation score.
-0.478

What amyloid nucleation score value was documented for this substance, FKITEYVSFNGTRPDNISMN ?
-0.082

If you can, please state the reported amyloid nucleation score value of DSHGYIYLCVWVRTQNPWSV .
inactive

Item SKGGADNNWLVIDCPLNRRM has what recorded amyloid nucleation score?
inactive

# input substance: IRYRRHVNVEFKMYNWSCWC ; wanted: its amyloid nucleation score
-0.554

###

Assay: amyloid nucleation score (Sup35N fusion, yeast selection) (log enrichment); library NNK2; higher = more nucleation; inactive = no reads after selection
Listed here: items and their measured amyloid nucleation score.
Output spec: single numeric token, no unit.

Worked set:
SSYKKYSVVN ... -1.59
MWRVWECGGRRDNLVRCPSR ... 0.774
SGVAPVIMYCAIVCGGLHM ... 8.52
SMYSSASMQWSDRFNILYEV ... -0.291
CDGAPSRLGRGLWGWSIMYG ... 0.921

Given the entry FTWLRPRGFS , report its measured amyloid nucleation score.
-0.676

What value of amyloid nucleation score has been recorded for this entry: VTLNTVDFPTGICKSSGARW
-0.236

Given HMHQPSSPHLLLCV , state its recorded amyloid nucleation score.
-0.47

Quick check: amyloid nucleation score of PTSDALLKCSAPFCSVRPVP ?
0.138

###

Here the recorded amyloid nucleation score is given for each entry.
Test: amyloid nucleation score (Sup35N fusion, yeast selection) (log enrichment); library NNK2; higher = more nucleation; inactive = no reads after selection
# respond with the number and nothing more

The cases that follow already have their amyloid nucleation score on record.
LRGGTLVDNNLSANNYVYEI ... -0.967
YVWRYVRPLVLAIDCVVAR ... 0.001

# amyloid nucleation score lookup, item PVGEEVADVMLTFYKHHLVD
-0.913

Which amyloid nucleation score value belongs to SCTWRRGFSSQVKYMNRQSI ?
0.989

I would be grateful if you could share the reported amyloid nucleation score for MRYEFVLFLRFRGSDTKGRD .
-0.124

# get_value(readout='amyloid nucleation score', item= FTAFWGYSTSVFHMDMCLRK )
2.17

Query (substance): PLCRRLVLLFRIFYNSRN ; field requested: amyloid nucleation score
-1.46

Request the reported amyloid nucleation score associated with TVSGDTSRRSRMNFSFYMQR
-0.266
